# studySystem: mTGR5 (Mus musculus)
# Construct: expressed in transfected cells; host or cells: HEK293 cells, transiently co-transfected with the pCRE TA-Luciferase reporter
# Sequence (Q80SS6 1-329): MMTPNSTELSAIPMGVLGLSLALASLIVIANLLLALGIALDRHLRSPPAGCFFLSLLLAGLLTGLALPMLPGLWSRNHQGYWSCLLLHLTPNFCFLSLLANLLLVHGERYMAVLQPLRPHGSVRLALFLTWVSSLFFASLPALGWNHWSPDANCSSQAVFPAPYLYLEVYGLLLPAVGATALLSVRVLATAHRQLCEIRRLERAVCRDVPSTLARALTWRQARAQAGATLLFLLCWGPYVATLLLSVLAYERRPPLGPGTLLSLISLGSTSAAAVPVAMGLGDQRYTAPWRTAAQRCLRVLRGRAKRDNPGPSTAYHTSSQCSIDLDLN
# testSummary: TGR5/CRE Luciferase Assay (mTGR5)
# Assay type: cell-based
# testSettings: percentage of the 10 μM LCA value; HEK 293 cells transfected with mTGR5
# Procedure: TGR5/CRE Luciferase Assay In the following Tables TGR5 activation by compounds of the invention and subsequent increase in intracellular cAMP were evaluated using a luciferase reporter gene assay. […] Luminescence was read with a Mithras plate reader (Berthold) or a Victor3™ V1420 (Perkin Elmer). […]
reportedMetric: mTGR5 % trans (%)

- compound: "CC1=C(C(=O)OCc2ccccc2)C(c2ccc(Cl)cc2)CC(=O)N1CCN1CCCC1 (stereo not shown)"
  studySystem: "mTGR5 (Mus musculus)"
  mTGR5 % trans / %: 5
- compound: "CCCC1CC(=O)N(CCOC)C(C)=C1C(=O)OCc1ccccc1OC (stereo not shown)"
  studySystem: "mTGR5 (Mus musculus)"
  mTGR5 % trans / %: 49
- compound: "CC1=C(C(=O)OCc2ccc(OCCCS(=O)(=O)O)cc2)[C@H](c2ccc(Cl)cc2)CC(=O)N1C[C@H]1CCCO1.N"
  studySystem: "mTGR5 (Mus musculus)"
  mTGR5 % trans / %: 120
- compound: "CN1C=C(C(=O)OCc2ccccc2)C(c2ccc(Cl)cc2)CC1=O (stereo not shown)"
  studySystem: "mTGR5 (Mus musculus)"
  mTGR5 % trans / %: 34
- compound: "COCCN1C(=O)CC(c2ccc(Cl)cc2)C(C(=O)OCc2c(C)cc(C)cc2C)=C1C (stereo not shown)"
  studySystem: "mTGR5 (Mus musculus)"
  mTGR5 % trans / %: 84
- compound: "CC1=C(C(=O)OCc2cccnc2)[C@H](c2ccc(Cl)cc2)CC(=O)N1C[C@H]1CCCO1 (racemic)"
  studySystem: "mTGR5 (Mus musculus)"
  mTGR5 % trans / %: 77
- compound: "COc1ccccc1[C@H](C)OC(=O)C1=C(C)N(C[C@H]2CCCO2)C(=O)C[C@H]1c1ccc(Cl)cc1"
  studySystem: "mTGR5 (Mus musculus)"
  mTGR5 % trans / %: 36
- compound: "O=C1CC(c2ccc(Cl)cc2)C(C(=O)NCc2ccccc2)=CN1 (stereo not shown)"
  studySystem: "mTGR5 (Mus musculus)"
  mTGR5 % trans / %: 36

a. CC1=C(C(=O)OCc2ccccc2)C(c2ccc(Cl)cc2)CC(=O)N1CCS(C)(=O)=O (stereo not shown)
b. CC1=C(C(=O)OCc2ccccc2)C(c2ccc(Cl)cc2)CC(=O)N1CC1CN(C)C1 (stereo not shown)
Lookup: Could you tell me which of these two has the smaller mTGR5 % trans figure? First: a Second: b Answer by stating the label of the chosen item.
Found: b
(b: 0%, a: 42%)

1. CC1=C(C(=O)OC2CCc3ccccc32)[C@H](c2ccc(Cl)cc2)CC(=O)N1C[C@H]1CCCO1 (mixture of isomers)
2. CC1=C(C(=O)OCc2ccccc2)C(c2ccc(Br)cc2)CC(=O)N1 (stereo not shown)
3. CC1=C(C(=O)OCc2ccc(OCCS(=O)(=O)O)cc2)[C@H](c2ccc(Cl)cc2)CC(=O)N1C[C@H]1CCCO1.N
4. COCCN1C(=O)CC(c2ccc(C#N)cc2)C(C(=O)OCc2ccccc2OC)=C1C (stereo not shown)
Lookup: Sort the 4 compounds by mTGR5 % trans; largest first, smallest last. A complete answer lists every label in the requested sequence.
Found: 3, 4, 1, 2
(3: 158%, 4: 100%, 1: 40%, 2: 21%)
